Values from ChEMBL document CHEMBL5036367

test system: HeLa; assay: Cytotoxicity against human HeLa cells assessed as reduction in cell viability incubated for 24 hrs by MTT assay; assay type: functional, cell-based
Assignment: determine reported IC50 for the given molecules.
Provide a numeric answer, followed by its unit.

Solved entries (count: 3):
molecule="CCc1c2c(nc3ccc(O)cc13)-c1cc3c(c(=O)n1C2)COC(=O)[C@]3(O)CC [7-ETHYL-10-HYDROXYCAMPTOTHECIN]" outcome_measure=IC50 assay_value="349 nM"
molecule=CC(C)C[C@H](NC(=O)[C@H](Cc1ccccc1)NC(=O)c1cnccn1)B(O)O outcome_measure=IC50 assay_value="20 nM"
molecule=COc1cccc2c1C(=O)c1c(O)c3c(c(O)c1C2=O)C[C@@](O)(C(=O)CO)C[C@@H]3O[C@H]1C[C@H](N)[C@H](O)[C@H](C)O1 outcome_measure=IC50 assay_value="90 nM"

Below: the item to evaluate.
What does the data say about its IC50? Entry: CCC1=[N+]2N=C(c3ccccc3)C(=O)O[B-]2([C@H](CC(C)C)NC(=O)[C@@H](Cc2ccccc2)NC(=O)c2cnccn2)Oc2cc(OC)ccc21 (some centres undefined) 134 nM
